testedOn: human PAD4 (Homo sapiens)
Construct: human PAD4 (NM_012387), A2P663, was PCR amplified; His-SUMO (N, cleaved yes); made in house; host or cells: E. coli BL21(DE3)
assayOverview: In vitro PAD4 BAEE biochemical assay
conditionSummary: human PAD4, BAEE substrate; 5 nM PAD4, 2 mM calcium chloride, 3 mM BAEE; geometric mean of multiple experiments
observable: IC50 (nM)

The following compounds have reported results that may help.
- CCN(C(=O)OC)c1ccc2cc(-c3nc4cc(C(=O)N5[C@H]6CC[C@@H]5[C@H](N)C6)cc(OC)n4c3C)n(CC3CC3)c2n1: 165
- COc1cc(C(=O)N2[C@H]3CC[C@@H]2[C@@H]2NCCO[C@@H]2C3)cc2nc(-c3cc4ccc([C@@H](C)NC(=O)C56CC(F)(C5)C6)nc4n3CC3CC3)c(C)n12: 1780

A: CS(=O)(=O)N(c1ccc2cc(-c3nc4cc(C(=O)N5C[C@H]6CC[C@@H]5[C@@H]6N)ccn4c3C3CC3)n(CC3CC3)c2n1)C(F)F
B: COc1cc(C(=O)N2[C@H]3CC[C@@H]2[C@H](N)C3)cc2nc(-c3cc4ccc([C@H]5CCNC(=O)C5)nc4n3CC3CC3)c(C)n12
C: COc1cc(C(=O)N2CCC[C@@H](N)C2)cc2nc(-c3cc4ccc(O[C@H](C)C(=O)N(C)C)nc4n3CC3CC3)c(C)n12
D: CNC(=O)C1CC1c1c(-c2cc3ccc(N(C(F)F)S(C)(=O)=O)nc3n2CC2CC2)nc2cc(C(=O)N3CCC[C@@H](N)C3)ccn12 (stereo partly drawn)
E: COc1cc(C(=O)N2C[C@@H]3CC[C@H]2CN3)cc2nc(-c3cc4ccc([C@@H](C)NC(=O)C56CC(F)(C5)C6)nc4n3CC3CC3)c(C)n12
**Q:** Ordering criterion: IC50; begin with the maximum. Please express your ranking as an ordered list of the labels.
**A:** E, D, C, A, B
(E: 11000 nM, D: 2030 nM, C: 686 nM, A: 194 nM, B: 81 nM)

###

testedOn: human PAD4 (Homo sapiens, UniProt Q9UM07)
Construct: human PAD4 (NM_012387), A2P663, was PCR amplified; His-SUMO (N, cleaved yes)
Sequence (Q9UM07 2-663): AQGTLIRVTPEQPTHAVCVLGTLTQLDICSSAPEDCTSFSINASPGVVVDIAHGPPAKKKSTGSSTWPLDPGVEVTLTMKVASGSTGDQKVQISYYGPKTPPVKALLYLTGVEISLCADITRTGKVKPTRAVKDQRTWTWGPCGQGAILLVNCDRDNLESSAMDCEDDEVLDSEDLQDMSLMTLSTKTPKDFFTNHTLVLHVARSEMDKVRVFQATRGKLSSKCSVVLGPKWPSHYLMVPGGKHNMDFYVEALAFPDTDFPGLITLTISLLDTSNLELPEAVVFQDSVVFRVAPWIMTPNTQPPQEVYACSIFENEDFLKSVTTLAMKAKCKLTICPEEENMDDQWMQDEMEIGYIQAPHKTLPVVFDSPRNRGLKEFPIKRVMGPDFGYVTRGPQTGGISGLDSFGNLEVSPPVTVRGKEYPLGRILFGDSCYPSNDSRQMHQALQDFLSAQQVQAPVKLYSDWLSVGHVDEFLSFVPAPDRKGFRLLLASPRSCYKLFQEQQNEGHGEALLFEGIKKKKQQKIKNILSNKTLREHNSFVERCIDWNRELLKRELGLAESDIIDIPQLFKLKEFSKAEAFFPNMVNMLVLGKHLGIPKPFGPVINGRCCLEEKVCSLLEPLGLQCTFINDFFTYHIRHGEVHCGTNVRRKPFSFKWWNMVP
assayOverview: In vitro PAD4 BAEE biochemical assay
conditionSummary: human PAD4, BAEE substrate; 5 nM PAD4, 2 mM calcium chloride, 3 mM BAEE; geometric mean of multiple experiments
observable: IC50 (µM)

Answered examples (10):
* CCN(c1ccc2cc(-c3nc4cc(C(=O)N5[C@H]6CC[C@@H]5[C@H](N)C6)cc(OC)n4c3C)n(CC3CC3)c2n1)S(C)(=O)=O | 0.0751
* COc1cc(C(=O)N2[C@H]3CC[C@@H]2[C@H](N)C3)cc2nc(-c3cc4ccc([C@@H](C)NC(=O)C5(C)CC5(F)F)nc4n3CC3CC3)c(C)n12 (stereo partly drawn) | 0.0466
* COc1cc(C(=O)N2[C@H]3CC[C@@H]2[C@H](N)C3)cc2nc(-c3cc4ccc([C@@H](C)NC(=O)c5ccccc5C)nc4n3CC3CC3)c(C)n12 | 0.108
* COc1cc(C(=O)N2C[C@@H](F)[C@@H](N)C2)cc2nc(-c3cc4ccc(N(C(F)F)S(C)(=O)=O)nc4n3CC3CC3)c(C)n12 | 6.36
* CCc1ccc2cc(-c3nc4cc(C(=O)N5[C@H]6CC[C@@H]5[C@H](N)C6)cc(OC)n4c3C)n(CCCO)c2n1 | 0.481
* COc1cc(C(=O)N2CCC[C@@H](N)C2)cc2nc(-c3cc4ccc([C@@H](C)N5CCCC5=O)nc4n3CC3CC3)c(C)n12 | 0.234
* CCc1ccc2cc(-c3nc4cc(C(=O)N5CCC6(CC6)[C@@H](N)C5)cc(OC)n4c3C)n(CC3CC3)c2n1 | 9
* COc1cc(C(=O)N2[C@H]3CC[C@@H]2[C@H](N)C3)cc2nc(-c3cc4ccc(N5[C@@H]6CC[C@@H](C6)CS5(=O)=O)nc4n3CC3CC3)c(C)n12 | 0.117
* COc1cc(C(=O)N2CCC[C@@H](N)C2)cc2nc(-c3cc4ccc(N(C(F)F)S(C)(=O)=O)nc4n3CC3CC3)c(C3CC3)n12 | 0.104
* COc1cc(C(=O)N2CCCC(C)(N)C2)cc2nc(-c3cc4ccc([C@@H](C)NC(=O)C56CC(F)(C5)C6)nc4n3CC3CC3)c(C3CC3)n12 (stereo partly drawn) | 13

I: COc1cc(C(=O)N2CC[C@H]3CCCN[C@H]3C2)cc2nc(-c3cc4ccc([C@@H](C)NC(=O)C56CC(F)(C5)C6)nc4n3CC3CC3)c(C)n12 [Example 180]
II: COc1cc(C(=O)N2CC[C@@H]3CCCN[C@@H]3C2)cc2nc(-c3cc4ccc([C@@H](C)NC(=O)C56CC(F)(C5)C6)nc4n3CC3CC3)c(C)n12
**Q:** Could you tell me which of I and II has the lower IC50 reading? Refer to your chosen item by its label in the answer.
**A:** I
(I: 0.494 µM, II: 10.5 µM)

###

testedOn: human PAD4 (Homo sapiens)
Construct: human PAD4 (NM_012387), A2P663, was PCR amplified; His-SUMO (N, cleaved yes)
assayOverview: In vitro PAD4 BAEE biochemical assay
conditionSummary: human PAD4, BAEE substrate; 5 nM PAD4, 2 mM calcium chloride, 3 mM BAEE; geometric mean of multiple experiments
pIC50: −log10 of the molar value.
observable: pIC50

• COc1cc(C(=O)N2[C@H]3CC[C@@H]2[C@H](N)C3)cc2nc(-c3cc4ccc([C@@H](C)NC(=O)N5CCO[C@@H](C)C5)nc4n3CC3CC3)c(C)n12 = 7.76
• COc1cc(C(=O)N2CCC[C@@H](N)C2)cc2nc(-c3cc4ccc(-c5ccc(N)nc5C)nc4n3CC3CC3)c(C)n12 = 6.29
• COc1cc(C(=O)N2[C@H]3CC[C@@H]2[C@H](N)C3)cc2nc(-c3cc4ccc([C@@H](C)NC(=O)C5C(C)(C)C5(F)F)nc4n3CC3CC3)c(C)n12 (some centres unmarked) = 7.18
• COc1cc(C(=O)N2[C@H]3CC[C@@H]2[C@H](N)C3)cc2nc(-c3cc4ccc([C@@H](C)NC(=O)C5(C)CC(F)(F)C5)nc4n3CC3CC3)c(C)n12 = 7.22
• CCc1ccc2cc(-c3nc4cc(C(=O)N5[C@H]6CC[C@@H]5[C@H](N)C6)cc(OC)n4c3C)n(-c3ccccc3)c2n1 = 4.75
• CCc1cc2c(cc1F)cc(-c1nc3cc(C(=O)N4CCC[C@@H](N)C4)cc(OC)n3c1C)n2CC1CC1 = 5.57
• COc1cc(C(=O)N2[C@H]3CC[C@@H]2[C@H](N)C3)cc2nc(-c3cc4ccc(N5[C@@H](C(F)(F)F)CCCS5(=O)=O)nc4n3CC3CC3)c(C)n12 = 6.73
• COc1cc(C(=O)N2[C@H]3CC[C@@H]2[C@H](N)C3)cc2nc(-c3cc4ccc([C@@H](C)NC(=O)c5ccnc(C(F)F)c5)nc4n3CC3CC3)c(C)n12 = 7.51

P: COc1cc(C(=O)N2[C@H]3CC[C@@H]2[C@H](N)C3)cc2nc(-c3cc4ccc(C(C)CC(=O)N5CC(F)(F)C5)nc4n3CC3CC3)c(C)n12 (some centres unmarked)
Q: COc1cc(C(=O)N2[C@H]3CC[C@@H]2[C@H](N)C3)cc2nc(-c3cc4ccc([C@@H](C)NC(=O)N5CC[C@H](CCO)C5)nc4n3CC3CC3)c(C)n12
**Q:** Looking only at measured pIC50, which entry is lower, P or Q ? Please indicate the selected item by its label.
**A:** P
(P: 7.00, Q: 7.35)

I: COc1cc(C(=O)N2[C@H]3CC[C@@H]2[C@H](N)C3)cc2nc(-c3cc4ccc(C(C)CC(=O)N5CCCC5)nc4n3CC3CC3)c(C)n12 (some centres unmarked)
II: COc1cc(C(=O)N2CCC[C@@H](N)C2)cc2nc(-c3cc4ccc(N(C(F)F)S(C)(=O)=O)nc4n3CC3CC3)c(CC(C)C)n12
III: COc1cc(C(=O)N2CCC[C@@H](N)C2)cc2nc(-c3cc4ccc(C(C)n5ccnn5)nc4n3CC3CC3)c(C)n12 (some centres unmarked)
IV: CCc1ccc2cc(-c3nc4cc(C(=O)N5CC6(CNCCO6)C5)cc(OC)n4c3C)n(CC3CC3)c2n1
V: COc1cc(C(=O)N2[C@H]3CC[C@@H]2[C@H](N)C3)cc2nc(-c3cc4ccc([C@@H](C)NC(=O)c5c(F)cccc5F)nc4n3CC3CC3)c(C)n12
**Q:** Sort by pIC50, descending. Please write the labels in the order that was asked for.
**A:** I, V, III, II, IV

A: COc1cc(C(=O)N2[C@H]3CC[C@@H]2[C@H](N)C3)cc2nc(-c3cc4ccc(N5CCOCS5(=O)=O)nc4n3CC3CC3)c(C)n12
B: COc1cc(C(=O)N2C[C@H]3CCCN[C@H]3C2)cc2nc(-c3cc4ccc(N(C(F)F)S(C)(=O)=O)nc4n3CC3CC3)c(C)n12
C: CCc1ccc2cc(-c3nc4cc(C(=O)N5[C@H]6CC[C@@H]5[C@H](N)C6)cc(OC)n4c3C)n(CC(C)(F)F)c2n1
D: CSc1cc(C(=O)N2CCC[C@@H](N)C2)cc2nc(-c3cc4ccc(N(C(F)F)S(C)(=O)=O)nc4n3CC3CC3)c(C)n12
**Q:** Rank descending by pIC50. Please list each label once, in the requested order.
**A:** A, C, B, D
(A: 7.28, C: 6.80, B: 6.32, D: 6.11)

P: COc1cc(C(=O)N2[C@H]3CC[C@@H]2[C@H](N)C3)cc2nc(-c3cc4ccc([C@@H](C)NC(=O)CC5(OC)CC5)nc4n3CC3CC3)c(C)n12
Q: COc1cc(C(=O)N2[C@H]3CC[C@@H]2[C@H](N)[C@H](OC)C3)cc2nc(-c3cc4ccc([C@@H](C)NC(=O)C56CC(F)(C5)C6)nc4n3CC3CC3)c(C)n12 [Example 22]
R: COc1cc(C(=O)N2[C@@H]3CC[C@@H](N)[C@H]2CC3)cc2nc(-c3cc4ccc(N(C(F)F)S(C)(=O)=O)nc4n3CC3CC3)c(C)n12 [Example 410]
**Q:** Hey, quick one: sort these by pIC50, largest value first please. As an answer, provide the labels arranged in the order called for.
**A:** P, R, Q

From: patent US12240862B2
